Test system: PPARg:RXRa 270nM:90nM, anti-RXR (NR concentration 270 nM, RXRa partner concentration 90 nM)
Test Method Notes: PBM binding z-score (relative to random genomic background probes); higher = stronger binding; sequences stand for … in GC…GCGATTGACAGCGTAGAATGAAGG
# label = Satisfied if PBM binding z-score >= 2 else Not satisfied

{"Sequence Record": "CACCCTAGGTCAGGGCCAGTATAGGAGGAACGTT", "Assigned Category": "Not satisfied"}
{"Sequence Record": "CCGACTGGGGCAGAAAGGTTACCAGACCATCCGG", "Assigned Category": "Satisfied"}
{"Sequence Record": "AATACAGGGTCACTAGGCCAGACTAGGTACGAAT", "Assigned Category": "Satisfied"}
{"Sequence Record": "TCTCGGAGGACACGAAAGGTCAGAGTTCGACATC", "Assigned Category": "Satisfied"}
{"Sequence Record": "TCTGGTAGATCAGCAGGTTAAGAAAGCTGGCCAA", "Assigned Category": "Not satisfied"}
{"Sequence Record": "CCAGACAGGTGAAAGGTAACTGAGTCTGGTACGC", "Assigned Category": "Satisfied"}
{"Sequence Record": "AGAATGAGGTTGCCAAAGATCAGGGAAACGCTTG", "Assigned Category": "Not satisfied"}
{"Sequence Record": "ACTCGGAGGACAAAGGTCAGACCTACGCCAGTGA", "Assigned Category": "Satisfied"}
{"Sequence Record": "AATTCAGGGTCATCGTAGGCCAGAGTACGCACAG", "Assigned Category": "Satisfied"}
{"Sequence Record": "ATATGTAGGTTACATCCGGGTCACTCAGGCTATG", "Assigned Category": "Satisfied"}
{"Sequence Record": "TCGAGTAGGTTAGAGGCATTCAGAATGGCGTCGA", "Assigned Category": "Satisfied"}
{"Sequence Record": "ATCTCTAGGGAACCAAGTTCAGTGAATGCCGAAC", "Assigned Category": "Not satisfied"}
{"Sequence Record": "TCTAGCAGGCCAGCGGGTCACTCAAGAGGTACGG", "Assigned Category": "Not satisfied"}
{"Sequence Record": "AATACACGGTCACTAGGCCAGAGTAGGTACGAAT", "Assigned Category": "Not satisfied"}
{"Sequence Record": "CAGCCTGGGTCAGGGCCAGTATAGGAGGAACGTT", "Assigned Category": "Not satisfied"}
{"Sequence Record": "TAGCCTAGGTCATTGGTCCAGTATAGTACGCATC", "Assigned Category": "Satisfied"}
{"Sequence Record": "CGAACTAGGTCATTGACAGGCCAGTGAATAGTAA", "Assigned Category": "Satisfied"}
{"Sequence Record": "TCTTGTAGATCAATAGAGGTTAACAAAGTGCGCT", "Assigned Category": "Not satisfied"}
{"Sequence Record": "AGTCAAAGTTCACTAGGTAACGTACGATTCAGCT", "Assigned Category": "Satisfied"}
{"Sequence Record": "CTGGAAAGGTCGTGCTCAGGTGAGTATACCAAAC", "Assigned Category": "Satisfied"}
{"Sequence Record": "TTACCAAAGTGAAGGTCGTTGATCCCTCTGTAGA", "Assigned Category": "Not satisfied"}
{"Sequence Record": "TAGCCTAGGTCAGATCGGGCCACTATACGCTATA", "Assigned Category": "Not satisfied"}
{"Sequence Record": "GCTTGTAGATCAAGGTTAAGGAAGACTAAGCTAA", "Assigned Category": "Satisfied"}
{"Sequence Record": "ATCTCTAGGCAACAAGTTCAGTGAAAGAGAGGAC", "Assigned Category": "Not satisfied"}
{"Sequence Record": "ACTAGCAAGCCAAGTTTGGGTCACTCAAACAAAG", "Assigned Category": "Not satisfied"}
{"Sequence Record": "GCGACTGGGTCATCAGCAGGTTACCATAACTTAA", "Assigned Category": "Satisfied"}
{"Sequence Record": "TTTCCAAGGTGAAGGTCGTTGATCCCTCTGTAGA", "Assigned Category": "Satisfied"}
{"Sequence Record": "GATACAGGGTCACCTAGAGGCCAGAGTATGGAAA", "Assigned Category": "Satisfied"}
{"Sequence Record": "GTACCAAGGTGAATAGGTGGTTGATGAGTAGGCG", "Assigned Category": "Not satisfied"}
{"Sequence Record": "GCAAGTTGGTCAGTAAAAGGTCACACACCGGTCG", "Assigned Category": "Satisfied"}
{"Sequence Record": "ATACCAAGGTAATCGTGAGGTCGTTGATACTAAC", "Assigned Category": "Not satisfied"}
{"Sequence Record": "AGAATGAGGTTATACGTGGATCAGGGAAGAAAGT", "Assigned Category": "Satisfied"}
{"Sequence Record": "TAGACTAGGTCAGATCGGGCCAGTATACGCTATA", "Assigned Category": "Satisfied"}
{"Sequence Record": "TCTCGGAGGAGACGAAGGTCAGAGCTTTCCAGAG", "Assigned Category": "Not satisfied"}
{"Sequence Record": "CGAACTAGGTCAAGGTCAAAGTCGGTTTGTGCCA", "Assigned Category": "Satisfied"}
{"Sequence Record": "ATCGAAAGGTCGAAGGTGAATATACCCACCCGAA", "Assigned Category": "Satisfied"}
{"Sequence Record": "CGTCCAATGTCAAAGGTCAGTGAAGAGATGACGG", "Assigned Category": "Satisfied"}
{"Sequence Record": "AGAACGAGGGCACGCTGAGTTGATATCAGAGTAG", "Assigned Category": "Not satisfied"}
{"Sequence Record": "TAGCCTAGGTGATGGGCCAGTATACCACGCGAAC", "Assigned Category": "Not satisfied"}
{"Sequence Record": "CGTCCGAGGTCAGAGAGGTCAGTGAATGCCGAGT", "Assigned Category": "Satisfied"}
{"Sequence Record": "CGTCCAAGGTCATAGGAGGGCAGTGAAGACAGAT", "Assigned Category": "Satisfied"}
{"Sequence Record": "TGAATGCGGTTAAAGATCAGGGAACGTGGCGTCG", "Assigned Category": "Satisfied"}
